- Tested on: common ragweed (Ambrosia artemisizfolia L., AMBEL)
- test summary: Pre-emerge test, greenhouse herbicide activity screening
- Type: in vivo
- study conditions: 250 g ai/ha; rated 14 days after application; 0 = no damage, 100 = complete death
Each entry below carries its recorded Pre-emerge Herbicidal Activity, phytotoxicity rating (0-100), AMBEL.
Keep the answer to the number alone.

Solved cases (2 shown):
cpd smiles	recorded measurement
COc1c(Cl)cc(F)c(-n2c(=O)cc(C(F)(F)F)n(C)c2=O)c1NC(=O)c1ccccc1F	100
COc1c(Cl)cc(F)c(-n2c(=O)cc(C(F)(F)F)n(C)c2=O)c1NC(=O)c1ccc(Cl)cc1Cl	100

(Q) Param item = COc1c(Cl)cc(F)c(-n2c(=O)cc(C(F)(F)F)n(C)c2=O)c1NC(=O)c1ccc(OC(F)(F)F)cc1 ; retrieve measured Pre-emerge Herbicidal Activity, phytotoxicity rating (0-100), AMBEL.
(A) 50

(Q) COc1c(Cl)cc(F)c(-n2c(=O)cc(C(F)(F)F)n(C)c2=O)c1N(C(=O)c1ccc(F)c(F)c1)C(=O)c1ccc(F)c(F)c1 ?
(A) 100
